# Measured On: T1, biotinylated goat anti-human kappa light chain
# T1 construct: positive control of the ELISA
# Assay Text: ELISA, positive control; note: test concentration or dose not given here
Attribute Measured: optical density (OD)
Record the value in OD, omitting the unit from your answer.

Enquiry: Using known records, supply optical density for 374_F07 (antibody, V domains shown, Group III) VH: EVQLLESGGGLVQPGGSLRLSCAASGFTFDSYSMNWVRQAPGKGLEWVASINYNGGYTGYADSVKGRFTISRDNSKNTLYLQMNSLRAEDTAVYYCARGANWHDTHLDYWGQGTLVTVSS VL: DIQMTQSPSSLSASVGDRVTITCRASQSILSYLNWYQQKPGKAPKLVIYAVTSLASGVPSRFSGSGSGTDFTLTISSLQPEDFATYYCQQSYESPLTFGGGTKVEIK
Return: 3.21

Enquiry: Using known records, supply optical density for 367_D03 (antibody, V domains shown, Group III) VH: EVQLLESGGGLVQPGGSLRLSCAASGFTFDSYSMNWVRQAPGKGLEWVSSINYNGGYTGYADSVKGRFTISRDNSKNTLYLQMNSLRAEDTAVYYCARGANWHDTHLDYWGQGTLVTVSS VL: DIQMTQSPSSLSASVGDRVTITCRASQSIITYLNWYQQKPGKAPKLLIYAATSRASGVPSRFSGSGSGTDFTLTISSLQPEDFATYYCQQSYDTPLTFGGGTKVEIK
Return: 3.46

Enquiry: Using known records, supply optical density for 369_D07 (antibody, V domains shown, Group III) VH: EVQLLESGGGLVQPGGSLRLSCAASGFTFSSYGMNWVRQAPGKGLEWVSGINYNGGYKSYADSVKGRFTISRDNSKNTLYLQMNSLRAEDTAVYYCARGANWHDTHLDYWGQGTLVTVSS VL: DIQMTQSPSSLSASVGDRVTITCRASQSIVSYLNWYQQKPGKAPKLVIYAATSRASGVPSRFSGSGSGTDFTLTISSLQPEDFATYYCQQSYDLPLTFGGGTKVEIK
Return: 3.26
